So I've got a bunch of sequences here, and I need their protein stability index values.
Assay: protein stability index of a GFP-peptide fusion (yeast GPS) (PSI 1-4); higher = more stable; sorted into four equal gates, so the index is relative within each strain
Details: doa10∆
Response field accepts a number only; no unit should be typed.

Query: Report protein stability index for GVTDLFRHFIGIKAKHD [ISW2]
Result: 1.2

Query: Report protein stability index for AITISNSIDINYKGLPK [SMC1]
Result: 2.48

Query: Report protein stability index for TAFALGIACAGKGLQSA [RPN2]
Result: 1.25

Query: Report protein stability index for NVPSTKFNAAPEENATE [SNF12]
Result: 3.21

Query: Report protein stability index for WKIPQNDIPQTESPLKT [SSN2]
Result: 2.71

Query: Report protein stability index for NQQQQNQQPQQQQQQQQ [SWI1]
Result: 3.06

Query: Report protein stability index for ALEFVSLLLSSVKESTG [SRB4]
Result: 1.26

Query: Report protein stability index for QWFEAHYGQTLGKKKNV [RPS8A]
Result: 2.56

Query: Report protein stability index for FRNNKNDNYSSDMENDN [REC8]
Result: 3.44

Query: Report protein stability index for AICRYANVIKALAFCEI [RRP4]
Result: 1.42

Query: Report protein stability index for KKSKKKWSKKSMKDRAQ [RPS25A]
Result: 3.46

Query: Report protein stability index for QPDENTKEMDEVEEDDE [SWI3]
Result: 3.22

Query: Report protein stability index for ERVSPTDIEEGMRVGVD [RPT1]
Result: 3.16

Query: Report protein stability index for LMLGSVNLPGGILRRKS [RRP4]
Result: 1.96

Query: Report protein stability index for IGSNGSGKSNFFAAIRF [SMC3]
Result: 3.03

Query: Report protein stability index for LIENCKKRNMPLQSIPE [SWI1]
Result: 2.86

Query: Report protein stability index for AGFTHKLSNWLFGWNDL [YDL088C/ASM4]
Result: 2.69

Query: Report protein stability index for NALTVGDFDKFDSLIKV [RPN9]
Result: 2.14

Query: Report protein stability index for FIANEGVHTGQFIYAGK [RPL2A]
Result: 2.98

Query: Report protein stability index for LFVISTEISPMAGSQFE [RRP45]
Result: 1.89

Query: Report protein stability index for GASTVMKTKTINAQGEE [PRP8]
Result: 3.31

Query: Report protein stability index for QVEYALESISHAGTAIG [PRE9]
Result: 2.34

Query: Report protein stability index for LLQLIQSQPQEKFSEKM [ECM29]
Result: 2.49

---

Experiment: protein stability index of a GFP-peptide fusion (yeast GPS) (PSI 1-4); higher = more stable; sorted into four equal gates, so the index is relative within each strain
Details: doa10∆
Result Type: protein stability index
Response field accepts a number only; no unit should be typed.

Query: Report protein stability index for EMSNKVLKVDKRFMNTS [BRR2]
Result: 2.9

Query: Report protein stability index for TSNDASNKKETKKKRKP [ITC1]
Result: 3.08

Query: Report protein stability index for AKHAVSEGTRAVTKYSS [HTB1]
Result: 3

Query: Report protein stability index for GVTSLIKNLGLPSDRCS [RPP1]
Result: 2.29

Query: Report protein stability index for TSSRGRDHKSYSQSPPR [SMC4]
Result: 2.65

Query: Report protein stability index for LTTAREHHSSVKYASPN [FAS2]
Result: 3.02

Query: Report protein stability index for EMKNIRGPYLVIVPLST [SNF2]
Result: 1.44

Query: Report protein stability index for PSPISHVAEIRSALEKG [RPB2]
Result: 1.68

Query: Report protein stability index for GGSNYMSNLPFGLGYGD [RPC31]
Result: 2.83

Query: Report protein stability index for RPNGRKDHDLKIPLPEV [POP1]
Result: 3.06

Query: Report protein stability index for TGGGLFGSKPTGATSLF [YGL172W/NUP49]
Result: 3.45

Query: Report protein stability index for LIQLGVKPLESSAKRSK [SRP72]
Result: 3.11

Query: Report protein stability index for GLCGAGTNNARLAQLLR [RPN1]
Result: 2.44

Query: Report protein stability index for TQAIADIVQYHLELYTS [PRE3]
Result: 2.07

Query: Report protein stability index for STYKHDRGIANIRNNIE [SRB4]
Result: 3.41

Query: Report protein stability index for QSQQAQPSDVMFNDLNS [MED2]
Result: 3.1

Query: Report protein stability index for WLYVYETPNQDATYDSA [RPN6]
Result: 2.62

Query: Report protein stability index for QQQQQQNNSTGSSSIIY [SSN2]
Result: 2.65

Query: Report protein stability index for KLLFQELLSMNIAPRLR [RET1]
Result: 1.35

Query: Report protein stability index for ILYEIRALYTPFLLMEL [YDL116W/NUP84]
Result: 2.66

Query: Report protein stability index for TRKGYIPSSKYAYMMNS [YLR018C/POM34]
Result: 3.08

Query: Report protein stability index for CIQVNCLNCEKSKLFEW [SNM1]
Result: 3.11

Query: Report protein stability index for TEENIKGETNSEISIID [RRP45]
Result: 2.96

Query: Report protein stability index for QLDLCKLYFQLFLNTGC [SRP68]
Result: 2.01

Query: Report protein stability index for SQLLLERLMISSDAFEV [RET1]
Result: 1.8

Query: Report protein stability index for FGHLKLALPVFHIGYFK [RPO31]
Result: 1.17

Query: Report protein stability index for TEAEETSIHSTISILAA [RRP43]
Result: 1.28

Query: Report protein stability index for RRFNSSIGRTAQGKEFG [RPL17A]
Result: 3.03

Query: Report protein stability index for FEETKLSTTPTKSNRRV [SIR4]
Result: 2.65

Query: Report protein stability index for VGGQFSKVQFDAKTSYP [REC8]
Result: 3.19

Query: Report protein stability index for IQKESTLHLVLRLRGGI [RPL40A]
Result: 2.48

Query: Report protein stability index for NNTVDPGFDEFQLIDMK [CSI1]
Result: 3.18

Query: Report protein stability index for RAGVTIPSIPNPIANHT [SNF5]
Result: 2.46

Query: Report protein stability index for SQTTLVQFGLNEETFTV [ARP9]
Result: 2.85

Query: Report protein stability index for VKGETRIQNRVKLGLNS [PRP8]
Result: 2.08

Query: Report protein stability index for LRPLFTRYELYIKNILE [YLR335W/NUP2]
Result: 1.6

Query: Report protein stability index for PHGFPSRMTVGKMIELI [RET1]
Result: 2.54

Query: Report protein stability index for AHFLSLSFTPTTVIGIR [RPN2]
Result: 1.57

Query: Report protein stability index for ARIFEFPKTTVAALRFT [RPL18A]
Result: 1.94

Query: Report protein stability index for EIDDFNDIDDLDMELAE [SEC65]
Result: 2.68

Query: Report protein stability index for EVTIEDALKVVLRTALV [RPS12]
Result: 3.35

Query: Report protein stability index for CSNESFASIPVSNSISR [SNU114]
Result: 2.55

Query: Report protein stability index for SLQNNLQNNINNSNNNN [SNF11]
Result: 3.19

Query: Report protein stability index for SEIWDVSRGQSAVLLET [PRP8]
Result: 2.83

Query: Report protein stability index for VVSTDLESIQKTKEAVA [RPL4A]
Result: 2.95

Query: Report protein stability index for TMFTAEQSELLKAQITS [SNF2]
Result: 2.19

Query: Report protein stability index for YDSRPLEEDSKKVNGTS [PRP8]
Result: 2.99

Query: Report protein stability index for TVPEYLKTADNRDRSFQ [PGD1]
Result: 3.08

Query: Report protein stability index for IVKASNWRLVEVGRVVL [RPL14A]
Result: 2.8

Query: Report protein stability index for DESDSENDIEIKGPEFK [YLR335W/NUP2]
Result: 2.88

---

So I've got a bunch of sequences here, and I need their protein stability index values.
Experiment: protein stability index of a GFP-peptide fusion (yeast GPS) (PSI 1-4); higher = more stable; sorted into four equal gates, so the index is relative within each strain
Settings: pdr5∆
Response field accepts a number only; no unit should be typed.

Query: Report protein stability index for PFIKSESKPFSSDALSK [SIR4]
Result: 3.15

Query: Report protein stability index for ARIKDAFITQLESSITD [YJL039C/NUP192]
Result: 2.25

Query: Report protein stability index for NGKIWVKCEELSNTLAC [RRP40]
Result: 3.24

Query: Report protein stability index for KQTKLRKEKEKKPGKIA [SMB1]
Result: 3.36

Query: Report protein stability index for LPTRGTLESLENLVVAD [COR1]
Result: 3.04

Query: Report protein stability index for AQYEVLANYLTSALSEL [QCR2]
Result: 2.18

Query: Report protein stability index for NTSESLLVDIQKYNQIQ [SMC2]
Result: 1.84

Query: Report protein stability index for EDPKRRADTMDFKTDVD [YJL039C/NUP192]
Result: 3.51

Query: Report protein stability index for IELSVPDRQSMDSRVAH [SRB5]
Result: 2.96

Query: Report protein stability index for LLERGRLRKRVTIIPLD [SMC2]
Result: 2.71

Query: Report protein stability index for SKDVSRLLSALGPRGVS [SRP21]
Result: 2.54

Query: Report protein stability index for MPGMPNMPGMPKVTPQM [SRP54]
Result: 3.2

Query: Report protein stability index for SDRECPKCHSRENVFFQ [RPB9]
Result: 2.74

Query: Report protein stability index for FGINTNTTKTADTKAPT [YLR335W/NUP2]
Result: 3.41

Query: Report protein stability index for YEAGASHGNPVVDFLKR [FAS1]
Result: 3.13

Query: Report protein stability index for KKSQCKKKTTLEDFENF [YIL149C/MLP2]
Result: 3.04

Query: Report protein stability index for QNTVPNVLNQINQIFSP [GAL11]
Result: 2.5

Query: Report protein stability index for NNNPLQQQSSQNTVPNV [GAL11]
Result: 2.86

Query: Report protein stability index for KKLKPIVAKYDPPIIIF [PRP28]
Result: 2.59

Query: Report protein stability index for ADEEEEIVDTYQEDIFV [ISW2]
Result: 2.67

Query: Report protein stability index for PPEEFSNTIDELSTDII [SRB7]
Result: 3.16

Query: Report protein stability index for SQPTNSTTTSLHVPNLQ [SMC4]
Result: 2.4

Query: Report protein stability index for EKFSPKSFISKLLGIGD [SRP54]
Result: 3.31

Query: Report protein stability index for GSKMEAKNEDDPAHSLN [AAR2]
Result: 1.27

Query: Report protein stability index for SKVIIKFLQVMQKHGYI [RPS22A]
Result: 1.84

Query: Report protein stability index for TLSEPVQGELKPTVILK [FAS1]
Result: 2.22

Query: Report protein stability index for RASDLRMTIRTRGRSAT [RRP43]
Result: 2.36

Query: Report protein stability index for LVELMFIRSTNSWFDVT [FAS1]
Result: 1.98

Query: Report protein stability index for ETQEIKENDTVMNTKLL [ESC2]
Result: 3

Query: Report protein stability index for SIGKNPFNKPNIETGEN [SWI3]
Result: 3.03

Query: Report protein stability index for DDLIAEENPIMQTALRR [QCR7]
Result: 3.24

Query: Report protein stability index for REKVRKLSQYVQEMALG [FAS2]
Result: 3.41

Query: Report protein stability index for KNRRRIHGELKTYKEGI [SMC1]
Result: 3.35

Query: Report protein stability index for ISKRKEELEEEFRKKLK [YIL149C/MLP2]
Result: 3.35

Query: Report protein stability index for MGNTKVHCRISCQIAQP [RRP45]
Result: 2.04

Query: Report protein stability index for TPSDLSESGSKLNVDQF [POP1]
Result: 3.4

Query: Report protein stability index for EWKSEFVVPTFGQDVSP [SNM1]
Result: 2.29

Query: Report protein stability index for TATLAWGVNLPAHTVII [BRR2]
Result: 1.4

Query: Report protein stability index for FPQYKLTTFANQVMMDR [ARP7]
Result: 2.19

Query: Report protein stability index for ANATAAESDVAKQLAAL [RPL16A]
Result: 2.84

Query: Report protein stability index for FDDILKVGAEMMMQQQL [MED2]
Result: 2.44

Query: Report protein stability index for VQESGNIDYQKGLLIWR [GRR1]
Result: 3.13

Query: Report protein stability index for QLNLNNLTPANILNMSM [PGD1]
Result: 3.19

Query: Report protein stability index for SDGIVLAAERKVTSTLL [PRE9]
Result: 1.58

Query: Report protein stability index for KKISRLPKFLTVQYVRF [UBP6]
Result: 1.44

Query: Report protein stability index for TSFDRTKKTITPMGGFV [RPL3]
Result: 3.03

Query: Report protein stability index for QLDAYGEKKVGSNGELF [SWP82]
Result: 3.29

Query: Report protein stability index for VGEEETSQKMKKMVYVL [SRP54]
Result: 3.38

Query: Report protein stability index for LEQVEFEKNTILQQRSK [MED4]
Result: 3.44

Query: Report protein stability index for YKNHELLKLERKKTEAV [SNF2]
Result: 3.17

Query: Report protein stability index for QQVVCIFSYGPHIQKML [POP6]
Result: 1.77
